Form: system (HCT-15), quantity (log10(GI50)), values below.
Recall that a logarithmic scale is used here: each number is log10 of GI50 in µM.

Need log10(GI50) of COc1ccc(C2C3=C(COC3=O)OC(C)(C)Oc3cc4c(cc32)OCO4)cc1 (stereo not given) , thanks. 1.37

And `O=c1cc2ccccc2nn1-c1ccccc1Cl` ? 1.97

And CC(C)=CCC/C(C)=C/C=C/C(C)=C/C1C[C@@]2(C(O)O1)[C@H](CCCO)/C(=C(/C)C=O)CC[C@]2(C)O (stereo not given in full) ? 1.21

And CCc1cccc(C)c1NC(=O)CC1C(=O)Nc2ccccc2[S+]1[O-] (stereo not given) ? 1.55

And `C=C(C)[C@@]1(O[Si](C)(C)C)CCCC[C@@H]1CC(Sc1ccccc1)Sc1ccccc1` ? 1.09

And `COC(=O)/C=C\C(C#N)(C#N)/N=C/c1ccc(Br)cc1` ? 0.47
